molecular target: purified human HDAC6 (Homo sapiens, UniProt Q9UBN7); construct: purchased BPS Bioscience 5006; experiment: HDAC6 enzyme assay; type: biochemical; details: bins: greater than 1 μM and less than 10 μM; greater than 10 μM
Sequence (Q9UBN7 whole entry): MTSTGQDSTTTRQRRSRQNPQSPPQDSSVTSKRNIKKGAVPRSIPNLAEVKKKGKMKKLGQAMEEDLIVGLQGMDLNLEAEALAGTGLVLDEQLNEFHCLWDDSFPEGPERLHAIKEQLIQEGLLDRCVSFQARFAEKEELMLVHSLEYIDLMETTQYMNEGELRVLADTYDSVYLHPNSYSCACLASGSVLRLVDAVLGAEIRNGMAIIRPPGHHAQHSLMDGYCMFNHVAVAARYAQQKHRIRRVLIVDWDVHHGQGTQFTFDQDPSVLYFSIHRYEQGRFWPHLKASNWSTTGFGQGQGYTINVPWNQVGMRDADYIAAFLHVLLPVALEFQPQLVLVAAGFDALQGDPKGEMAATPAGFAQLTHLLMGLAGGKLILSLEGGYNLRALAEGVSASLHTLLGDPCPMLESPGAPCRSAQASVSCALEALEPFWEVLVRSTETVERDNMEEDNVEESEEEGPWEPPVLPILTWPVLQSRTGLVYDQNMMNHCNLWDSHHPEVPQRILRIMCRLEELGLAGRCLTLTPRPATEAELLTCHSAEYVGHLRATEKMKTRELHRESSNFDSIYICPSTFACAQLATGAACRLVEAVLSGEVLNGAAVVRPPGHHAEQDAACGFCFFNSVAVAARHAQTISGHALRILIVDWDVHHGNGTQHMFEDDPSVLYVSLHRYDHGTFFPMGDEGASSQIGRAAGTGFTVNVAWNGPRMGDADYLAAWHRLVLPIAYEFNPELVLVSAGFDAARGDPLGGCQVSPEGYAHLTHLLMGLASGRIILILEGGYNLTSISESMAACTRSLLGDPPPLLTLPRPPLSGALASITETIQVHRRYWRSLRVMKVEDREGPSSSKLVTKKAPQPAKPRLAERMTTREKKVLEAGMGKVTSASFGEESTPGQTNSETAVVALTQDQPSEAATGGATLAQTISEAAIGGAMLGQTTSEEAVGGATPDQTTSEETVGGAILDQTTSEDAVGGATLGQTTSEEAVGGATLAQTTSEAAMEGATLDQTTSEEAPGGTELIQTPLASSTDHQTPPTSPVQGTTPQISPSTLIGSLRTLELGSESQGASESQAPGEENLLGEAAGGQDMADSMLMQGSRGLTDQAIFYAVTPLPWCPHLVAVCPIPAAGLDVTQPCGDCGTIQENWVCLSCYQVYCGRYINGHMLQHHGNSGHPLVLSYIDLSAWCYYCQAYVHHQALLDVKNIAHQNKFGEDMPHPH

{"compound": "O=C(NO)c1cc2n(c1)CCN(C(=O)c1cn3ccccc3n1)C2 [Compound I-3]", "IC50": "1 to 10 µM"}
{"compound": "O=C(NO)c1cn2c(n1)CN(C(=O)C13CC4CC(CC(C4)C1)C3)CC2 [Compound I-27]", "IC50": "1 to 10 µM"}
{"compound": "Cc1nc(CC(=O)N2CCn3nc(C(=O)NO)cc3C2)cs1 [Compound I-90]", "IC50": "1 to 10 µM"}
{"compound": "Cn1c(C(=O)N2CCCn3nc(C(=O)NO)cc3C2)cc2ccccc21 [Compound I-105]", "IC50": "1 to 10 µM"}
{"compound": "Cc1oc(-c2ccccc2)nc1CC(=O)N1CCn2cc(C(=O)NO)cc2C1 [Compound I-82]", "IC50": "> 10 µM"}
{"compound": "Cn1c(C(=O)N2CCCn3cc(C(=O)NO)cc3C2)cc2oc(-c3ccc(C(F)(F)F)cc3)cc21 [Compound I-5]", "IC50": "1 to 10 µM"}
{"compound": "O=C(NO)c1cc2n(c1)CCN(C(=O)c1cnn3cccnc13)C2 [Compound I-84]", "IC50": "> 10 µM"}
{"compound": "Cc1ccc(C(=O)N2CCCn3cc(C(=O)NO)cc3C2)s1 [Compound I-69]", "IC50": "> 10 µM"}
{"compound": "O=C(NO)c1cc2n(c1)CCCN(C(=O)c1csc3ccccc13)C2 [Compound I-96]", "IC50": "1 to 10 µM"}
{"compound": "O=C(NO)c1cn2c(n1)CN(C(=O)NCc1ccccc1)CC2 [Compound I-123]", "IC50": "1 to 10 µM"}
{"compound": "O=C(NO)c1cc2n(n1)CCN(C(=O)CCc1ccccc1)C2 [Compound I-106]", "IC50": "1 to 10 µM"}
{"compound": "Cc1onc(-c2ccccc2)c1NC(=O)N1CCn2cc(C(=O)NO)nc2C1 [Compound I-122]", "IC50": "1 to 10 µM"}
{"compound": "O=C(NO)c1cc2n(n1)CCN(C(=O)C1(C(F)(F)F)CC1)C2 [Compound I-8]", "IC50": "1 to 10 µM"}
{"compound": "CCc1cccc(CC)c1NC(=O)N1CCn2cc(C(=O)NO)nc2C1 [Compound I-115]", "IC50": "1 to 10 µM"}
{"compound": "O=C(NO)c1cc2n(c1)CCCN(C(=O)C1CCCC1)C2 [Compound I-19]", "IC50": "> 10 µM"}
{"compound": "CCC(C)NC(=O)N1CCn2cc(C(=O)NO)nc2C1 (stereo not shown) [Compound I-118]", "IC50": "1 to 10 µM"}
{"compound": "CC1(C(=O)N2CCn3cc(C(=O)NO)nc3C2)CCCCC1 [Compound I-26]", "IC50": "1 to 10 µM"}
{"compound": "Cc1ccc(-c2ccc(C(=O)N3CCCn4cc(C(=O)NO)cc4C3)cc2)cc1 [Compound I-80]", "IC50": "1 to 10 µM"}
{"compound": "CCc1cc(C(=O)N2CCCn3cc(C(=O)NO)cc3C2)n(C)n1 [Compound I-95]", "IC50": "1 to 10 µM"}
{"compound": "CS(=O)(=O)c1cccc(C(=O)N2CCn3cc(C(=O)NO)cc3C2)c1 [Compound I-54]", "IC50": "> 10 µM"}
{"compound": "CC(C)(C(=O)N1CCn2nc(C(=O)NO)cc2C1)c1ccc(Cl)cc1 [Compound I-37]", "IC50": "1 to 10 µM"}
{"compound": "O=C(NO)c1cc2n(n1)CCCN(C(=O)c1cc3ccccc3s1)C2 [Compound I-98]", "IC50": "1 to 10 µM"}
{"compound": "Cc1cc(C(=O)N2CCCn3cc(C(=O)NO)cc3C2)c(C)o1 [Compound I-4]", "IC50": "> 10 µM"}
{"compound": "Cc1c(C(=O)N2CCCn3nc(C(=O)NO)cc3C2)oc2ccccc12 [Compound I-108]", "IC50": "1 to 10 µM"}
{"compound": "O=C(NO)c1cc2n(n1)CCN(CCCn1cccc1)C2=O [Compound I-109]", "IC50": "1 to 10 µM"}
{"compound": "Cc1c(C(=O)N2CCCn3cc(C(=O)NO)cc3C2)cnn1-c1ccccc1 [Compound I-7]", "IC50": "1 to 10 µM"}
{"compound": "CC1(C(=O)N2CCn3nc(C(=O)NO)cc3C2)CCCCC1 [Compound I-6]", "IC50": "1 to 10 µM"}
{"compound": "O=C(NO)c1cc2n(c1)CCN(C(=O)c1cnn(-c3ccccc3)c1C(F)(F)F)C2 [Compound I-64]", "IC50": "1 to 10 µM"}
